# Test system: T47D
# method: Growth inhibition of human T47D cells assessed as cell growth at 10^-6 M by sulforhodamine B assay
# Format: functional
# assay.setup: read-out: Activity
measured.property: growth at 1 µM (%)

* CC(C)=CC(=O)O[C@@H]1CC(C)(C)C[C@H]2C3=CC[C@@H]4[C@@]5(C)CCC(=O)C(C)(C)[C@@H]5CC[C@@]4(C)[C@]3(C)CC[C@@]12C(=O)O | 92
* CC1(C)C[C@@H](O)[C@]2(C(=O)O)CC[C@]3(C)C(=CC[C@@H]4[C@@]5(C)C/C(=C\C=C\c6ccccc6)C(=O)C(C)(C)[C@@H]5CC[C@]43C)[C@@H]2C1 | 97
* CC(C)=CC(=O)O[C@@H]1CC(C)(C)C[C@H]2C3=CC[C@@H]4[C@@]5(C)CC[C@H](O)C(C)(C)[C@@H]5CC[C@@]4(C)[C@]3(C)CC[C@@]12C(=O)O | 96
* C/C=C(/C)C(=O)O[C@@H]1CC(C)(C)C[C@H]2C3=CC[C@@H]4[C@@]5(C)CCC(=O)C(C)(C)[C@@H]5CC[C@@]4(C)[C@]3(C)CC[C@@]12C(=O)O | 93
* C/C=C(/C)C(=O)O[C@@H]1CC(C)(C)C[C@H]2C3=CC[C@@H]4[C@@]5(C)CC[C@H](O)C(C)(C)[C@@H]5CC[C@@]4(C)[C@]3(C)CC[C@@]12C(=O)O | 96
